Below is a list of entries, each paired with its recorded growth value.
# Tested on: T-47D breast
# Assay details: NCI-60 one-dose screen, 48 h (100 = growth as untreated, 0 = no growth, -100 = all killed)
# Conditions: 10 µM unless noted
The panel holds about 83,000 compounds, 20% with a hit somewhere; the sample as a whole holds those more often.

{"Molecule": "COc1ccccc1-n1cc(C#N)c(N)c1C(=O)c1ccc(C)cc1", "growth, %": 82.1}
{"Molecule": "CC(O)c1cc2ccccc2c(=O)o1 (stereo not drawn)", "growth, %": 104}
{"Molecule": "N#Cc1c(-c2cccs2)cc(-c2cnccn2)nc1SCC(=O)Nc1ccc(Br)cc1", "growth, %": 96.2}
{"Molecule": "O=C(CN1CCN(c2cc(=O)n(-c3ccccc3)c3ccccc23)CC1)Nc1nc(-c2ccc(Cl)cc2)cs1", "growth, %": 24.3}
{"Molecule": "Oc1cccc2ccc(-c3nnc(SCc4ccc(O)c5ncccc45)o3)nc12", "growth, %": 16}
{"Molecule": "Nc1ncc(-c2ccc3ncnc(N4CCc5cc(F)c(F)cc54)c3c2)cn1", "growth, %": 4.14}
{"Molecule": "CNC(=O)c1cc(N2CCc3cc(NC(=O)Nc4ccc(Cl)c(C(F)(F)F)c4)ccc32)ccn1", "growth, %": 49.2}
{"Molecule": "Cc1c(F)cc(C(N)=O)cc1NCC(=O)Nc1ccc([N+](=O)[O-])cc1", "growth, %": 102}
{"Molecule": "COc1cc(Cn2cc3c(c2)-c2onc(CN4CCOCC4)c2CC3)cc(OC)c1OC", "growth, %": 79.3}
{"Molecule": "Cc1ccc(-c2cc3nc(C(Cl)Cl)nc(-c4ccco4)n3n2)cc1", "growth, %": 21.2}
{"Molecule": "COC(=O)C1(C)CCC[C@]2(C)[C@H]3C[C@H]4C(C(C)C)=C[C@]3(CC[C@@H]12)[C@H]1[C@@H]4[C@@H](OC(=O)c2ccco2)CC[C@@H]1OC(=O)c1ccco1 (stereo partly drawn)", "growth, %": 98.9}
{"Molecule": "NS(=O)(=O)c1ccc(Nc2nc(N/N=C/c3c[nH]c4ccccc34)nc(Nc3ccccc3)n2)cc1", "growth, %": 35.3}
{"Molecule": "CNC(=O)c1cc(Oc2ccc3nc(NC(=O)c4cc(N5CCOCC5)cc(C(F)(F)F)c4)sc3c2)ccn1", "growth, %": 74.2}
{"Molecule": "C=C1CC[C@@H]2[C@]3(C)COC(c4ccccc4)O[C@@H]3CC[C@@]2(C)[C@@H]1C/C=C1/C(=O)OC[C@H]1O (stereo partly drawn)", "growth, %": 70.6}
{"Molecule": "C#CCn1cccc1CNc1ccc(OC)cc1", "growth, %": -55.7}
{"Molecule": "Cn1ccnc1C(=O)/C=C/c1ccc(CNC(=O)c2ccc(Cl)cc2)cc1", "growth, %": 34}
{"Molecule": "COc1cc(-c2nc(SC(C)C)n(C(C)C)c(=O)c2C#N)ccc1OCc1ccccc1", "growth, %": 52.6}
{"Molecule": "Cc1[nH]c(C(=O)Nc2ccccc2OCc2cccc(C(=O)N3CCC[C@@H](N)C3)c2)c(Cl)c1Cl", "growth, %": -55.2}
{"Molecule": "CC(=O)Nc1cccc(Nc2nc(N[C@H](C)c3ccccc3)c3ccccc3n2)c1", "growth, %": 78.8}
{"Molecule": "CCN1CCN(C(=O)[C@]23CCC(C)(C)C[C@H]2C2=CC[C@@H]4[C@@]5(C)Cc6c([nH]c7ccccc67)C(C)(C)[C@@H]5CC[C@@]4(C)[C@]2(C)CC3)CC1", "growth, %": 72.6}
{"Molecule": "O=C1Nc2ccccc2/C1=C/c1ccc(CO)n1-c1ccc(Cl)cc1", "growth, %": 62.9}
{"Molecule": "Cc1ccc(-c2cc3nc(C(Cl)Cl)nc(-c4cccs4)n3n2)cc1", "growth, %": 87.8}
{"Molecule": "Cc1ccc(-n2cc(/C=C/C(=O)c3ccc(O)cc3)c(-c3ccc(S(C)(=O)=O)cc3)n2)cc1", "growth, %": 73.5}
{"Molecule": "O=S(=O)(Oc1ccc(-c2nnc(Nc3ccccc3)s2)cc1)C(F)(F)C(F)(F)C(F)(F)C(F)(F)C(F)(F)C(F)(F)F", "growth, %": 104}
{"Molecule": "CCn1c(SCC(=O)Nc2cccc(C(=O)/C=C/c3ccccc3Cl)c2)nc2ccccc2c1=O", "growth, %": 81.3}
{"Molecule": "Cc1ccc(S(=O)(=O)NCCNc2nc(Nc3ccc(N4CCN(C)CC4)cc3)nc3ccsc23)cc1", "growth, %": 102}
{"Molecule": "COc1cc(-c2nc(SCCC(C)C)nc(NNC(=O)c3ccncc3)c2C#N)cc(OC)c1OC", "growth, %": 43}
{"Molecule": "Cn1ccnc1C(=O)/C=C/C=C/c1ccc(C(=O)Nc2ccc(F)cc2)cc1", "growth, %": 28.2}
{"Molecule": "Cc1cc(C)c2sc(=O)n(Cc3nnc(SCCC(=O)O)o3)c2n1", "growth, %": 89.5}
{"Molecule": "CCCn1cnc2c(c1=N)C(c1ccc(F)cc1)c1sc3c(C)cccc3c1O2 (stereo not drawn)", "growth, %": 38.3}
{"Molecule": "Fc1ccc(-c2cc3nc(C(Cl)Cl)nc(-c4ccco4)n3n2)cc1", "growth, %": 7.31}
{"Molecule": "CCCC(=O)NC(c1cccnc1)c1cc(C(C)(C)C)c2cccnc2c1O (stereo not drawn)", "growth, %": 24.1}
{"Molecule": "COc1cc(Cn2cc3c(c2)-c2onc(CN4CCCC4)c2CC3)cc(OC)c1OC", "growth, %": 76.1}
{"Molecule": "C#Cc1nc(C(C)=O)cs1", "growth, %": 101}
{"Molecule": "COc1ccc(/C=N/NC(=O)c2cn(C3CC3)c3c(OC)c(N4CC5CCCNC5C4)c(F)cc3c2=O)cc1 (stereo not drawn)", "growth, %": 85.9}
{"Molecule": "CC(Nc1c(C#N)cnc2ccc(-c3cnc(N)nc3)cc12)c1ccccc1 (stereo not drawn)", "growth, %": 9.18}
{"Molecule": "C=CCN(C)S(=O)(=O)/N=C1\\NC(=O)NC1=C(Cl)Cl", "growth, %": 55.1}
{"Molecule": "CS(=O)(=O)c1ccc(-c2nn(-c3ccccc3)cc2/C=N/NC(=O)c2nc(N)n[nH]2)cc1", "growth, %": 101}

###

Below is a list of entries, each paired with its recorded growth value.
# Tested on: SF-268 CNS
# Assay details: NCI-60 one-dose screen, 48 h (100 = growth as untreated, 0 = no growth, -100 = all killed)
# Conditions: 10 µM unless noted
This is part of a sample that, as a whole, favours compounds with a hit. Of some 83,000 tested, about 20% had one in any assay.
Parameter: growth (%)

{"Molecule": "CCn1c(SCC(=O)Nc2cccc(C(=O)/C=C/c3cc(OC)c(OC)c(OC)c3)c2)nc2ccccc2c1=O", "Measurement": 37.7}
{"Molecule": "O=C(Nc1cccc(C(F)(F)F)c1)c1cc(-c2ccc(F)cc2F)ccc1O", "Measurement": 16.5}
{"Molecule": "COc1ccccc1NC1=C(Cl)C(=O)c2nc(C)ccc2C1=O", "Measurement": 47.4}
{"Molecule": "C/C(=N\\O)[C@H]1C[C@]23CC[C@]4(C)[C@H](CC[C@@H]5[C@@]6(C)CC/C(=N/O)C(C)(C)[C@@H]6CC[C@]54C)[C@H]2[C@H](C)C1(C)OC3", "Measurement": 89.4}
{"Molecule": "NC(N)=Nc1ccc(Oc2cccc(NC(N)=Nc3ccc(I)cc3F)c2)cn1", "Measurement": 36.3}
{"Molecule": "CCNC(=O)N1CCc2cc(OC)c(OCCc3ccc(OC)cc3)cc2C1c1ccc(OC)cc1C (centres undefined)", "Measurement": 34}
{"Molecule": "NC(=O)c1c(NC(=O)c2ccccc2C(F)(F)F)sc2c1CCC(=O)C2", "Measurement": 24.6}
{"Molecule": "O=C(O)c1ccc(-n2cc(CNc3cccc(Cl)c3)c(-c3ccc(F)cc3)n2)cc1", "Measurement": 109}
{"Molecule": "O=c1c2ccccc2nc(COc2ccccc2)n1NS(=O)(=O)c1ccc(Cl)cc1", "Measurement": 88.6}

###

# Test system: HS 578T breast
# Assay details: NCI-60 one-dose screen, 48 h (100 = growth as untreated, 0 = no growth, -100 = all killed)
# Conditions: 10 µM unless noted
The panel holds about 83,000 compounds, 20% with a hit somewhere; the sample as a whole holds those more often.
growth strictly under 20% means criterion met; at 20% or over means criterion not met.

{"Smiles data": "O=C1[C@@H]2Cc3c([nH]c4ccccc34)[C@H](c3c(Cl)cccc3Cl)N2C(=O)CN1C1CCN(CC2CCCCC2)CC1", "Qualitative label": "criterion met"}
{"Smiles data": "CC(=O)Nc1cccc(Nc2nc(N[C@@H](C)c3ccccc3)c3ccccc3n2)c1", "Qualitative label": "criterion met"}
{"Smiles data": "c1cc(-c2nc3ccc4[nH]ncc4c3c3c2CCCC3)[nH]n1", "Qualitative label": "criterion not met"}
{"Smiles data": "CS(=O)(=O)Nc1cc(-c2ccc3ncc(C#N)c(NCc4ccccc4O)c3c2)cnc1Cl", "Qualitative label": "criterion met"}
{"Smiles data": "CC1(C)CC[C@]2(CN)CC[C@]3(C)C(=CC[C@@H]4[C@@]5(C)CCCNC(C)(C)[C@@H]5CC[C@]43C)[C@H]2C1", "Qualitative label": "criterion not met"}
